Tested on: PA-1
Test: Primary qHTS to identify gynecologic anti-cancer compounds using libraries of approved drugs and bioactive compounds (AID 1345084); also: nearly all actives have a fitted effect of over 55% in size
Condition summary: Gynecologic cancer cell panel viability, ATPlite luminescence, 48 h; series mostly up to 57.5 µM
Inconclusive results are not listed. Calls of active or inactive are those of the source. Calls follow the shape of the dose curve; as a rule, active = well fitted cell-killing curve with a large enough effect; inconclusive = small, poorly fitted or top-dose-only effect, or effect the other way; inactive = flat fitted curve, though single readings scatter.
Can you answer with just one of these options? active, inactive

### Prompt Look up the recorded call for C[N+]1(C)[C@@H]2CC(OC(=O)[C@H](CO)c3ccccc3)C[C@H]1[C@@H]1O[C@@H]12 (stereo not given in full) in this test.
### Response inactive

### Prompt Proceed to O=C(Nc1ccc(C(=O)O)c(O)c1)c1ccccc1
### Response inactive

### Prompt Proceed to O=C(CS)Nc1ccccc1
### Response inactive

### Prompt Proceed to CCN(CC)CCCCNc1ncc2cc(-c3c(Cl)cccc3Cl)c(NC(=O)NC(C)(C)C)nc2n1
### Response active

### Prompt Proceed to Cc1onc(-c2c(F)cccc2Cl)c1C(=O)N[C@@H]1C(=O)N2[C@@H]1SC(C)(C)[C@@H]2C(=O)O
### Response inactive

### Prompt Proceed to O=C(O)[C@H](CC(=O)N1C[C@H]2CCCC[C@H]2C1)Cc1ccccc1
### Response inactive

### Prompt Proceed to O=C(O)Cc1ccc(-c2ccccc2)cc1
### Response inactive

### Prompt Proceed to NC(=O)C(c1ccccc1)(c1ccccc1)[C@@H]1CCN(CCc2ccc3c(c2)CCO3)C1
### Response inactive

### Prompt Proceed to CC(C(=O)O)c1ccc(C(=O)c2cccs2)cc1 (stereo not given)
### Response inactive

### Prompt Proceed to COc1cc2c3cc1Oc1cc(ccc1O)C[C@@H]1c4c(cc(OC)c(O)c4Oc4ccc(cc4)C[C@@H]3N(C)CC2)CC[N+]1(C)C
### Response inactive

* * *

System tested: Calcium and integrin-binding protein 1 (Homo sapiens)
Test: Primary qHTS for Identification of Calcium Integrin Binding Protein 1 (CIB1) Competitor (AID 1508620);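 also: GST tagged CIB1 binding a fluorescein labelled alphaIIb integrin peptide tracer; top concentration of the series differs between compounds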
Condition summary: CIB1-GST / FITC-alphaIIb peptide fluorescence polarization; series mostly up to 114 µM
Records with an inconclusive call do not appear. The source made the active and inactive calls. Calls come from the whole dose curve; as a rule, active = well fitted inhibition curve with a large enough effect; inconclusive = small, poorly fitted or top-dose-only effect; inactive = flat fitted curve, though single readings scatter.
Can you answer with just one of these options? active, inactive

Known results for compounds:
### Prompt Look up the recorded call for O=C(O)Cc1ccc(-c2ccccc2)cc1 in this test.
### Response inactive

### Prompt Proceed to COc1ccc(/C=C/C(=O)Nc2ccccc2C(=O)O)cc1OC
### Response inactive

### Prompt Proceed to CCOc1ccc2nc(S(N)(=O)=O)sc2c1
### Response inactive

### Prompt Proceed to CC(C(=O)O)c1ccc2c(c1)[nH]c1ccc(Cl)cc12 (stereo not given)
### Response inactive

### Prompt Proceed to c1ccc2sc(SSc3nc4ccccc4s3)nc2c1
### Response inactive

***
### Prompt Look up the recorded call for CC1(C)[C@@H](O)CC[C@]2(C)[C@H]3C(=O)C=C4[C@@H]5C[C@@](C)(C(=O)O)CC[C@]5(C)CC[C@@]4(C)[C@]3(C)CC[C@@H]12 in this test.
### Response inactive

### Prompt Proceed to COC(=O)Nc1nc2ccc(C(=O)C3CC3)cc2[nH]1
### Response inactive

* * *

Test: qHTS for differential inhibitors of proliferation of Plasmodium falciparum line D10 (AID 1877);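 also: parasites grown with compound for 72 h before DNA staining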
Condition summary: series mostly up to 28.7 µM
Records with an inconclusive call do not appear. Calls of active or inactive are those of the source. The call rests on the fitted dose curve; in most records, active means well fitted curve in the direction sought with a large enough effect; inconclusive means small, poorly fitted or top-dose-only effect, or another doubt; inactive means no such curve, though single readings can be large or run the other way.
Can you answer with just one of these options? active, inactive

Known results for compounds:
### Prompt Look up the recorded call for C[C@@H](NC(=O)/C(C#N)=C/c1ccc(O)c(O)c1)c1ccccc1 in this test.
### Response active

### Prompt Proceed to O=C(O)[C@@H]1C[C@@H](C(=O)O)N1
### Response inactive

***
### Prompt Look up the recorded call for CCCCCCCCCCCCCCCCCC(=O)OC(CC(=O)O)C[N+](C)(C)C (configuration not stated) in this test.
### Response inactive

### Prompt Proceed to C=C/C(C)=C/[C@@]1(C)SC(=O)C(C)=C1O
### Response inactive

### Prompt Proceed to CCCN(CC1CC1)c1nc(C)nc(Nc2c(Cl)cc(Cl)cc2Cl)c1Cl
### Response active

### Prompt Proceed to CCCCCCCC/C=C\CCCCCCCC(=O)NCCO
### Response active

### Prompt Proceed to Brc1c(Br)c(Br)c2n[nH]nc2c1Br
### Response inactive

### Prompt Proceed to N#C/C(=C\c1ccc(O)c(O)c1)C(=O)NCc1ccccc1
### Response active

### Prompt Proceed to CN1CCC[C@H]1c1cccnc1
### Response inactive

### Prompt Proceed to O=C1C(SCCO)=C(SCCO)C(=O)c2ccccc21
### Response active

### Prompt Proceed to CCCCCC(O)c1cccc(OCc2ccc3ccccc3n2)c1 (configuration not stated)
### Response active

### Prompt Proceed to O=C1NC(O)=NC1(c1ccccc1)c1ccccc1
### Response inactive
